# target.of.assay: T1, Macaca fascicularis IL-36R on cells (Macaca fascicularis, UniProt A0A2K5WSK9 20-558)
# T1 sequence: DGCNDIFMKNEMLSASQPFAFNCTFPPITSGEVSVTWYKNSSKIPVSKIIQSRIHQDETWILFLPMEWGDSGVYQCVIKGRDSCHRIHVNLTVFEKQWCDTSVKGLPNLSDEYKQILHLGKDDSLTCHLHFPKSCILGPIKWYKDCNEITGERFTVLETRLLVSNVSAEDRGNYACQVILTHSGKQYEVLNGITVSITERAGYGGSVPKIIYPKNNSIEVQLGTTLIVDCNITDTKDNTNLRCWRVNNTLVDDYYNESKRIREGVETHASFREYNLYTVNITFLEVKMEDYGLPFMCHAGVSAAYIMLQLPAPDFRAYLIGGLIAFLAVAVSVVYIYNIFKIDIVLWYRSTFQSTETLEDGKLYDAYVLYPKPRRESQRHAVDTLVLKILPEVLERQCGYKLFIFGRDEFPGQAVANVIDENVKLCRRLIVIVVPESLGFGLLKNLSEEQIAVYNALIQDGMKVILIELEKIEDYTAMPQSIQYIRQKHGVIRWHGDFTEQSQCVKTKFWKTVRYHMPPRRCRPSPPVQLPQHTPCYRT
# run.description: cell-based or functional assay
// IC50 [M], NFκB-luciferase, 500 pM hIL-36α lookup, one value per entry
Only the number, expressed in M, is required.

{"columns": ["binder", "recorded.value"],
 "data": [
  ["H4H14706P2 (antibody, human IgG4 S228P, kappa, V domains shown) VH: EVQLVESGGGLVQPGRSLRLSCTASGFTFDDYAIHWVRQSPGKGLEWVSVISWNSDVIGYADSVKGRFTISRDNAKNSLYLQMNSLRAEDTALYYCAKGYNWNFFDYWGQGTLVTVSS VL: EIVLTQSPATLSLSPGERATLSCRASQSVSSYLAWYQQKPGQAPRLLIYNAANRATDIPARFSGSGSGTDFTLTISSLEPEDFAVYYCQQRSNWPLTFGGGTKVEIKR", "6e-11"]
]}

Q) Reported IC50 [M], NFκB-luciferase, 500 pM hIL-36α, binder H4H14728P (antibody, human IgG4 S228P, kappa, V domains shown) VH: QVQLQESGPGLVKPSQTLSLTCTVSGGSISSADYYWSWIRQHPGKGLEWIGSIYYTGSTYYNPSLKSRLTISIDTSENQFSLKLTSLTAADTAVYYCASEEANWGSHFDSWGQGTLVTVSS VL: DIQMTQSPSSLSASVGDRVTITCRASQSIDNFLNWYQQKPGKAPKLLIYAASSLQSGVPSRFSGSGSGTDFTLTISSLQPEDFASYYCQHSHSAHPITFGQGTRLEIKR : ____
A) 1.3e-09

Q) Reported IC50 [M], NFκB-luciferase, 500 pM hIL-36α, binder H4H14699P2 (antibody, human IgG4 S228P, kappa, V domains shown, Fully human anti-IL-36R antibody) VH: EVQLVESGGGLVQPGRSLRLSCAASGFTFDDYAIHWVRQAPGKGLEWVSVISWNSDIIGYADSVKGRFTVSRDNAKNSLYLQMNSLRTEDTALYYCAKGYNWNFFDYWGQGTLVTVSS VL: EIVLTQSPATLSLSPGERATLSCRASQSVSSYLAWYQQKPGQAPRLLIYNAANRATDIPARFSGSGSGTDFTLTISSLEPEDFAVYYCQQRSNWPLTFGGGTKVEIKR : ____
A) 8.4e-11

Q) Reported IC50 [M], NFκB-luciferase, 500 pM hIL-36α, binder H4H14708P2 (antibody, human IgG4 S228P, kappa, V domains shown) VH: EVQLVESGGDLVQPGRSLRLSCAASGFTFDDYAMHWVRQAPGKGLEWVSVISWNSDVIAYSDSVKGRFTISRDNAKNSLYLQMNSLRTEDTALYYCTKGHKWSFFDYWGQGTLVTVSS VL: EIVLTQSPATLSLSPGERATLSCRASQSISSYLAWYQQKPGQAPRLLIFNVANRATDIPARFSGSGSGTDFTLTISSLEPEDFAVYYCQQRSNWPLTFGGGTKVEIKR : ____
A) 8.9e-11

Q) Reported IC50 [M], NFκB-luciferase, 500 pM hIL-36α, binder H4H14700P2 (antibody, human IgG4 S228P, kappa, V domains shown) VH: EVQLVESGGGLVQPGRSLRLSCAASGFTFDDYAMHWVRQTPGKGLEWVSVISWNSDVIAYSDSVKGRFTISRDNAKNSLYLQMNSLGTEDTALYYCAKGHNWNFFDYWGQGTLVTVSS VL: EIVLTQSPATLSLSPGERATLSCRASQSVSSYLAWYQQKPGQAPRLLIYNVANRATDIPARFSGSGSGTDFTLTISGLEPEDFAVYFCQQRSNWPLTFGGGTKVEIKR : ____
A) 1.2e-10

Q) Reported IC50 [M], NFκB-luciferase, 500 pM hIL-36α, binder H4H14731P (antibody, human IgG4 S228P, kappa, V domains shown) VH: QLQLQESGPGLVKPSETLSLTCTVSGGSISSSNYYWGWIRQPPGKRLEWIGSIYYSGSTYYNPSLKTRVTISVDTSKNQFSLKLTSVTAADTAVYYCAREEAAALTHFDFWGQGTLVTVSS VL: DIQMTQSPSSLSASVGDRVTITCRASQSISNYLNWYQQKPGKAPKLLIFAASSLQSGVPSRFSGSGSGTDFTLTISSLQPEDFATYYCQHSHSSHPITFGQGTRLEIKR : ____
A) 3.1e-09
